Molecular target: Genome polyprotein (dengue virus type 2, UniProt P29990)
Sequence (P29990 1346-1475 limits assumed): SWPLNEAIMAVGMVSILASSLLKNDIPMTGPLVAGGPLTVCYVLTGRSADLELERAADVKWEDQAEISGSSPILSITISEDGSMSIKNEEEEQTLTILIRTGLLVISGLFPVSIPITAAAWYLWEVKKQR
Sequence (P29990 1476-2093 limits assumed): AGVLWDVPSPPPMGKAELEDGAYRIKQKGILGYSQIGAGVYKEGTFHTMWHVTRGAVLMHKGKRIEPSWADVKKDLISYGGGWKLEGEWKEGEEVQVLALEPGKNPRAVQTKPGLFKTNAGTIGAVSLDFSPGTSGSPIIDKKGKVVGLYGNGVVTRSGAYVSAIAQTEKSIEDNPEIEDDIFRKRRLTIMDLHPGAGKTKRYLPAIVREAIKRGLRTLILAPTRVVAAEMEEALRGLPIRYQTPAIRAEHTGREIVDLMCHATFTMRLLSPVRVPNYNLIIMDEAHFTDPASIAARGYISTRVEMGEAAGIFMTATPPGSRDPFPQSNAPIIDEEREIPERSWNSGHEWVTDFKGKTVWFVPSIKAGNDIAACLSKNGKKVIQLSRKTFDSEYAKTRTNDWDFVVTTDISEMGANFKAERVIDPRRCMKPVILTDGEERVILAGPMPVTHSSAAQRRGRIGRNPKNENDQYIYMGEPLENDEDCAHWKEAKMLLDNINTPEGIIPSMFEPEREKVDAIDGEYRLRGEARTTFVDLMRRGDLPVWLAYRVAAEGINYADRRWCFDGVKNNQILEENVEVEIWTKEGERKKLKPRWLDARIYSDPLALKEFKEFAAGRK
Assay type: functional, Thailand/16681/1984
assay.metric: IC50

Recorded results for 3 molecules are shown here.
mol=Cc1c(C(=O)Nc2cc3c(cn2)OCC3)cc(C2CC2)n1C measured="> 100 µM"
mol=CN(c1ccc(Oc2ccccc2Cl)cc1)S(=O)(=O)c1cc(F)c(Cl)cc1C(=O)O measured="46.5 µM"
mol=O=C(Nc1ccc2c(c1)CNC2)[C@H]1C[C@@H]1c1ccccc1 measured="> 100 µM"

Query string: GET /values?readout=IC50&item= `NCc1cccc(NC(=O)c2cc(Br)cc(-n3cnnn3)c2)c1`
Result string: > 100 µM

Query string: Also `O=C(Nc1cc([C@H]2CCOC2)ccn1)c1ccc2scnc2c1` , if possible.
Result string: > 100 µM

Query string: Also `CC1(c2nc(C(=O)Nc3cc(-c4cccnc4)ccn3)no2)CC1` , if possible.
Result string: > 100 µM

Query string: Also `O=C(NCC(F)F)[C@H](Nc1ccc2c(c1)CNC2)c1cc(F)cc2[nH]ncc12` , if possible.
Result string: 78.2 µM

Query string: Also `Cc1cccc(-c2nc3c(C(=O)Nc4ccc5c(c4)CNC5)cc(Cl)cc3[nH]2)c1O` , if possible.
Result string: 18.7 µM

----------
Target: Genome polyprotein (dengue virus type 2)
Assay type: functional, Thailand/16681/1984
assay.metric: IC50

Recorded results for 4 compounds are shown here.
mol=O=C(Nc1ccc2c(c1)CNC2)c1cc(F)cc(-c2c[nH]c(=O)c(F)c2)c1 measured="> 99.5 µM"
mol=OCC#C[C@H](Nc1ccc(-c2nnn[nH]2)cc1)c1cc(Cl)cc(C2CC2)c1 measured="> 99.5 µM"
mol=c1csc(-c2nnc(Sc3ncnc4sccc34)o2)c1 measured="> 99.5 µM"
mol=O=C(O)c1cc(Cl)ccc1S(=O)(=O)N[C@H]1CC[C@H]2CN(Cc3ccccc3)C[C@H]2C1 measured="> 99.5 µM"

Query string: GET /values?readout=IC50&item= `CC(C)(C)NC(=O)C[C@H]1NCc2cc(NC(=O)c3cc(Cl)cc4[nH]ncc34)ccc21`
Result string: > 99.5 µM

Query string: Also `Cc1cc(F)cc(N(C)C(=O)c2ccc(C3(CN)CC3)cc2)c1` , if possible.
Result string: > 99.5 µM

Query string: Also `NCc1cccc(NC(=O)[C@H](NC(=O)OCc2ccccc2)c2cccc(OC[C@H]3COCCO3)c2)c1` , if possible.
Result string: > 99.5 µM

Query string: Also `COc1cc(NS(=O)(=O)c2ccc(Oc3ccccc3Cl)cc2)c(C(=O)O)cc1Cl` , if possible.
Result string: 8.67 µM

Query string: Also `Cc1ccc(C(=O)Nc2ccc3c(c2)CNC3)c2[nH]ncc12` , if possible.
Result string: > 99.5 µM

Query string: Also `CNC(=O)[C@H](Nc1ccc2c(c1)CNC2)c1cccc2[nH]ncc12` , if possible.
Result string: 81.3 µM

Query string: Also `COc1ccc(F)cc1-c1ccc(S(=O)(=O)Nc2cc(Cl)cc(C(=O)O)c2)cc1` , if possible.
Result string: 89.9 µM

----------
Target: Genome polyprotein (dengue virus type 2)
Type: functional, Thailand/16681/1984
pIC50: −log10 of the molar value.
Reported pIC50 by item:

mol=CN1CCn2nc(NC(=O)[C@@H](NC(=O)OCc3ccccc3)c3ccc(OCc4ccccc4)cc3)cc2C1 tgt="Genome polyprotein (dengue virus type 2)" assay_metric=pIC50 measured="< 4.00"
mol=CS(=O)(=O)c1ccc(N2CCN(C(=O)C3CCN(c4ccc(C=O)cc4)CC3)CC2)c([N+](=O)[O-])c1 tgt="Genome polyprotein (dengue virus type 2)" assay_metric=pIC50 measured=4.07
mol=COc1ccc2nc(C)cc(C(=O)Nc3cccc(CN)c3)c2c1 tgt="Genome polyprotein (dengue virus type 2)" assay_metric=pIC50 measured="< 4.00"
mol=CC(C)(C)OC(=O)NCc1cccc(NC(=O)c2cc(N)cc(Cl)c2)c1 tgt="Genome polyprotein (dengue virus type 2)" assay_metric=pIC50 measured="< 4.00"
mol=CC(C)n1ncc2c(C(=O)Nc3ccc4c(c3)CNC4)cc(Cl)cc21 tgt="Genome polyprotein (dengue virus type 2)" assay_metric=pIC50 measured="< 4.00"

Now consider the entry below.
Query string: GET /values?readout=pIC50&item= `O=C(Nc1ccc2c(c1)CNC2)c1cc(Cl)cc(-n2cccc2)c1`
Result string: < 4.00

The measured values listed here are drawn from ChEMBL document CHEMBL5604063.
